- ASSAY TARGET: G-protein coupled receptor 183 (Homo sapiens)
- TEST SUMMARY: repeat testing of EBI2 arrestin blockers – cell-based, single concentration, luminescence, 7a,25-OHC stimulation, confirmation (AID 651997)
- CONDITION INFO: EBI2 beta-arrestin luminescence, 7a,25-OHC antagonism; at 5 µM
Screen size: about 2,400 compounds; about 700 (29%) were called active.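 Rule for the calls: active = inhibition of at least 50%; inactive = the rest.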 Not all results are given here.
Labels: active, inactive

>>> df
                                   compound  assigned_class
0  COc1ccc(OCC(=O)N2CCN(C(=O)COc3ccccc3)CC2)cc1        inactive
1  COc1cccc(NC(=O)Cn2c3ccccc3c3nc4n(c(=O)c32)CCS4)c1        inactive
2    Cc1cc(OCC(=O)N2CCN(c3ncccn3)CC2)ccc1Cl          active
3  Cc1ccc(-c2nn(-c3ccccc3)cc2/C=C/C(=O)Nc2cccc(S(N)(=O)=O)c2)cc1        inactive
4  COc1ccc(C(C(=O)NC2CCCCC2)N(C(=O)c2snc(C(N)=O)c2N)c2ccccc2OC)cc1 (stereo not given)          active

---

- ASSAY TARGET: G-protein coupled receptor 183 (Homo sapiens) (UniProt P32249)
- Sequence (P32249 whole entry, looked up): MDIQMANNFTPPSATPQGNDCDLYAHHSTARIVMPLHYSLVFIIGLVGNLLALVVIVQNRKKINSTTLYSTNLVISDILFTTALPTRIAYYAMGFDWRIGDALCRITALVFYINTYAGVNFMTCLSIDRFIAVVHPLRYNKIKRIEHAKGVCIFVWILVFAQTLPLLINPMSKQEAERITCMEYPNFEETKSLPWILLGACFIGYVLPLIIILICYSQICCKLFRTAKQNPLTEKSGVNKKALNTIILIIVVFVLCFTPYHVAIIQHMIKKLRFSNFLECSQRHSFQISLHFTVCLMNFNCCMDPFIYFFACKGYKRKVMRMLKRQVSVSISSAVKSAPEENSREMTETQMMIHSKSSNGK
- TEST SUMMARY: repeat testing of EBI2 arrestin blockers – cell-based, single concentration, luminescence, 7a,25-OHC stimulation, confirmation (AID 651997)
- CONDITION INFO: EBI2 beta-arrestin luminescence, 7a,25-OHC antagonism; at 5 µM; hits give high values
In all, about 2,400 compounds went through this assay and about 700 (29%) were called active. The list is a sample of the results.
MEASURED ATTRIBUTE: inhibition (%)

In [3]: df
Out[3]:
                                    molecule  observed_measurement
 0  CC(C)Cc1ccc(-c2cc3nc(NCc4cccc(Cl)c4)ccn3n2)cc1                  51.8
 1  c1ccc(C(c2ccccc2)N2CCN(Cc3nnnn3C3CCCCC3)CC2)cc1                    34
 2     Cc1nc(-c2ccccc2)sc1C(=O)/C=C/c1ccccc1                  52.2
 3   CC(C)N(Cc1ccccc1)C(=S)Nc1ccc(OC(F)F)cc1                  24.2
 4  Cc1cc(Cl)c2oc(C(=O)N3CCC(O)(c4ccccc4)CC3)c(C)c2c1                  43.3
 5         Cc1ccc(O/C=C2\OC(=O)c3ccccc32)cc1                    16
 6  O=C(Nc1ccc(S(=O)(=O)N2CCCCC2)cc1)C1CC(=O)N(c2ccc(F)cc2)C1 (stereo unspecified)                  17.5
 7  COc1ccc(-c2nc(N)ncc2-c2ccc(Cl)cc2)c(O)c1                  58.9
 8        Cc1cc(OCCOc2cccc3cccnc23)c(C)cc1Cl                  38.3
 9       COc1ccc(/C=C/C(=O)c2ccc(OC)cc2O)cc1                  41.6
10  O=C(COc1ccc(Cl)cc1)N1CCN(c2cccc(C(F)(F)F)c2)CC1                    68
